Settings: human gut metagenome, 24 h, 2 µM; further: call rule not given here
Property label: Bacterial Biotransformation

// solved cases for Bacterial Biotransformation follow
{"Compound": "CCCCCOC(=O)Nc1nc(=O)n([C@@H]2O[C@H](C)[C@@H](O)[C@H]2O)cc1F", "Reported result": "Compound metabolized"}
{"Compound": "O=P(O)(O)O.c1ccc(CN(CC2=NCCN2)c2ccccc2)cc1 [ANTAZOLINE PHOSPHATE]", "Reported result": "Compound NOT metabolized"}
{"Compound": "CS(=O)(=O)O.OC(CCN1CCCCC1)(c1ccccc1)c1ccccc1 [PRIDINOL METHANESULFONATE]", "Reported result": "Compound NOT metabolized"}
{"Compound": "CCCc1nc2c(C)cc(-c3nc4ccccc4n3C)cc2n1Cc1ccc(-c2ccccc2C(=O)O)cc1", "Reported result": "Compound metabolized"}
{"Compound": "CC[C@H](C)C(=O)O[C@H]1C[C@@H](C)C=C2C=C[C@H](C)[C@H](CC[C@@H]3C[C@@H](O)CC(=O)O3)[C@H]21", "Reported result": "Compound NOT metabolized"}

Bacterial Biotransformation reported for this compound `COc1cc2c(c(OC)c1OC)-c1ccc(OC)c(=O)cc1[C@@H](NC(C)=O)CC2` : Compound NOT metabolized

Bacterial Biotransformation reported for this compound CCC(COC(=O)c1cc(OC)c(OC)c(OC)c1)(c1ccccc1)N(C)C.O=C(O)/C=C\C(=O)O (stereo not drawn) : Compound metabolized

Bacterial Biotransformation reported for this compound CC(C)(C)NC[C@H](O)COc1ccccc1C1CCCC1.CC(C)(C)NC[C@H](O)COc1ccccc1C1CCCC1.O=S(=O)(O)O [PENBUTOLOL SULFATE] : Compound metabolized
